Test: T. gondii growth inhibition with IFN-gamma, primary screen, cell-based (AID 1259416);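 also: host cells are HeLa cells infected with Toxoplasma gondii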
Settings: Toxoplasma gondii growth in IFN-gamma-treated host cells; hits give low values; concentration not given here
About 2,600 (3.8%) of roughly 69,000 compounds were called active. What follows is part of a selection rich in actives, with near analogues and random picks from the rest.
# activity change, negative = inhibition listing for each entry below
Report only the number, with the unit % understood.

Solved entries:
Cc1cccnc1N1C[C@H]2CN(c3cnn(C)c3)C(=O)[C@@H]2C1: -73.4
CCOC(=O)c1cccnc1-c1ccc(OC)nc1: 14.5
COCc1ncn2c1CN(C(=O)c1cnc(C)cn1)CCC2: 16.2
Cc1c(Br)c(C(F)(F)F)nn1CC(=O)N1CCCCC1: 2.94
C[C@@H]1CN([C@H](C)CO)C(=O)c2cccc(NC(=O)c3ccc(-c4nccs4)cc3)c2O[C@@H]1CN(C)C(=O)Nc1ccc(C(F)(F)F)cc1: -77.7
S=C(NCCCc1cnc[nH]1)NCCCN(Cc1ccc(Cl)c(Cl)c1)c1ccc(Br)cn1: -78.1
COc1ncc(-c2cccc(C(C)N3CCCC3)c2)c(OC)n1 (stereo not given): -10.7
O=C1CCCN1CC1CN(Cc2ccccn2)Cc2nccn2C1 (stereo not given): -70.8

QUERY: Look up activity change, negative = inhibition for this compound: O=C1CCCN1CC1CN(c2ncc(F)cn2)Cc2nccn2C1 (stereo not given)
RESULT: 4.1

QUERY: Please report the recorded activity change, negative = inhibition for `Cc1ccc(C(=O)N2CCC3(CC2)CCN(c2cnn(C)c2)C3=O)cc1` .
RESULT: 19.8

====

Experiment: T. gondii growth inhibition with IFN-gamma, primary screen, cell-based (AID 1259416);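 also: host cells are HeLa cells infected with Toxoplasma gondii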
Conditions: Toxoplasma gondii growth in IFN-gamma-treated host cells; concentration not given here
Hit rate of the full screen: of about 69,000 compounds, about 2,600 (3.8%) were called active. Cut-off read from the data, not from the text of the source: active = activity change below about -70% (passing the limit was not always enough); inconclusive = no clear call, values can overlap the other calls. Many of the other results were omitted from the sample, so actives are more common in it than they were.
Write down the outcome that applies. Available outcomes: True (active), False (inactive)

Observe how each entry below is paired with its result.
Cn1nc(CC(=O)Nc2cccc(Cl)c2)c2ccccc2c1=O: True
Cc1nc(OCC(=O)Nc2cccc(Cl)c2)c2ccccc2n1: False
Cn1nc(C(=O)O)c2ccccc2c1=O: False
O=C(COC(=O)c1ccc(Cl)nc1)NCc1ccc2c(c1)OCO2: False
Cc1csc(CCCNc2cc(N(C)C)ncn2)n1: False
O=C(CCC1(c2ccccc2)NC(=O)NC1=O)Nc1ccc(N2CCCCC2)c(F)c1 (stereo unspecified): False
CCC(=O)N1Cc2cc(C(=O)NCc3cccc(F)c3)nc(-c3cccc(C4=CCCC4)c3)c2[C@H]1CCO: False
Clc1cccc(-c2nnc(-c3nc(NC4CCCC4)c4ccccc4n3)o2)c1: True

QUERY: Test call, this compound: `Cc1ccc(Nc2nc(-c3nnc(-c4cccc(C)c4)o3)nc3ccccc23)cc1`
RESULT: False

QUERY: Which result was noted for this compound in the test: O=C1NCC(CN2CCOc3c(O)cc(-c4csc5ccccc45)cc3C2)O1 (stereo unspecified)
RESULT: True

QUERY: Please share the test call associated with CCC(C(=O)OC)N1CCOc2c(O)cc(-c3ccc(C)s3)cc2C1 (stereo unspecified) .
RESULT: False

====

Test: T. gondii growth inhibition with IFN-gamma, primary screen, cell-based (AID 1259416);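 also: host cells are HeLa cells infected with Toxoplasma gondii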
Conditions: Toxoplasma gondii growth in IFN-gamma-treated host cells; hits give low values; concentration not given here
The campaign covered roughly 69,000 compounds. About 2,600 (3.8%) were called active. The entries come from a sample that favours actives as a whole.
Entries annotated with measured activity change, negative = inhibition
API: value field is a number in %; no unit string.

The examples below pair each entry with its known result.
O=S(=O)(c1ccc(Cl)c(Cl)c1)N1CCC2(CC1)Nc1ccccc1-n1cccc12: 43
O=S(=O)(NC[C@H]1[C@H](c2ccccc2)[C@H](CO)N1CC1CC1)c1ccccc1: 14.7

Now look at this one.
QUERY: Consider the compound `CC1(C)[C@@H](O[C@H]2O[C@H](C(=O)O)[C@@H](O)[C@H](O)[C@@H]2O[C@@H]2O[C@H](C(=O)O)[C@@H](O)[C@H](O)[C@H]2O)CC[C@@]2(C)[C@H]3C(=O)C=C4[C@@H]5C[C@@](C)(C(=O)O)CC[C@]5(C)CC[C@@]4(C)[C@]3(C)CC[C@@H]12` and give its measured activity change, negative = inhibition.
RESULT: 15.6

Values compiled from PubChem BioAssay AID1259416.
